B1: TRIB1 (parent)
chain: SYVRSRKRLREEEAARLFKQIVSA

variants of: B1; assay: protein stability index of a GFP-peptide fusion (GPS, HEK-293T) (PSI 1-6); higher = more stable; conditions: c terminus: a fixed tail appended;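 note: lentivirally expressed fusions sorted by FACS into six bins by GFP to DsRed ratio, PSI derived from sequencing read proportions per bin multiplied by bin number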
Collected protein stability index values appear next to each entry.

Below are worked cases with known answers.
SYVRSRKRLNEEEAARLFKQIVSA [R10N] = 2.54
SYVRSRKRLREEEAARLFKQIVGA [S23G] = 1.9

**Q:** // fetch protein stability index given entry SYVRSRDRLREEEAARLFKQIVSA [K7D]
**A:** 3.05

**Q:** Provide one value: measured protein stability index of SYVRSRKRLREEEKARLFKQIVSA [A14K]
**A:** 2.64

**Q:** State its protein stability index: SYVRSSKRLREEEAARLFKQIVSA [R6S]
**A:** 2.21

**Q:** Please report the measured protein stability index for SYTRSRKRLREEEAARLFKQIVSA [V3T]
**A:** 2.12

**Q:** Give me measured protein stability index, please, for this variant: SYVRSRKRLREMEAARLFKQIVSA [E12M]
**A:** 2.48

**Q:** Indicate the recorded protein stability index value for this variant: SYVRSRKRLREEEAARLFKQHVSA [I21H]
**A:** 2.4

**Q:** Find the measured protein stability index of AYVRSRKRLREEEAARLFKQIVSA [S1A] and report it.
**A:** 2.07

**Q:** Supply recorded protein stability index for SYVRSRKRLREEEAARCFKQIVSA [L17C] here.
**A:** 2.52

**Q:** Name the recorded protein stability index of the item SYVRSRKRLREEEAARLFKVIVSA [Q20V] in your answer.
**A:** 1.04

**Q:** Identify protein stability index associated with the variant KYVRSRKRLREEEAARLFKQIVSA [S1K]
**A:** 2.98

**Q:** Using known records, supply protein stability index for SYVRSRKSLREEEAARLFKQIVSA [R8S]
**A:** 1.99

Reference source: the supplement of paper PMC10567573
